Experiment: reversal of MRP1-mediated doxorubicin resistance, pilot screen, H69AR cells, doxorubicin co-treatment (AID 601)
Settings: H69AR cells + 2 uM doxorubicin, CellTiter-Glo, 72 h; at 10 µM; stronger effect = higher value
// differential viability (reversal) lookup, one value per entry
Output spec: scalar in %, unitless text.

Solved entries (count: 5):
compound=O=S(=O)(c1ccc2ccccc2c1)N1CCCCC1 assay_readout="differential viability (reversal)" observed=5.72
compound="O=c1[nH]cnc2c1nc(SCc1ccccc1)n2C1OC(CO)C(O)C1O (stereo unspecified)" assay_readout="differential viability (reversal)" observed=8.52
compound=Cc1nc(CCNC(=O)c2ccccc2)cs1 assay_readout="differential viability (reversal)" observed=7.85
compound=CC1CCN(S(=O)(=O)c2ccc3[nH]c(=O)cc(C(=O)O)c3c2)CC1 assay_readout="differential viability (reversal)" observed=17.1
compound="Cc1ccc(-c2nnn(CC(=O)NC3CC4CCC3C4)n2)cc1 (stereo unspecified)" assay_readout="differential viability (reversal)" observed=5.1

Entry under test: O=c1[nH]cnc2c1C1(CCCC1)Cc1ccccc1-2 . Its differential viability (reversal) was 11.5

Lab note: O=C(NC1CCS(=O)(=O)C1)N1CCCCC1 (stereo unspecified) gave differential viability (reversal) of 1.27

Query CC(C)Cc1nc(S(=O)(=O)c2ccc(Cl)cc2)c(N2CCOCC2)o1 yields differential viability (reversal) of 0.63

Notebook: O=c1c2[nH]c3ccccc3c2ncn1CCCn1ccnc1 , differential viability (reversal) read as 1.08

Looking up O=C1NC(Cc2c[nH]c3ccccc23)C(=O)N1CCOc1ccccc1 (stereo unspecified) , I found its differential viability (reversal) recorded as 0.2

// recorded differential viability (reversal) for COc1ccc2c(CC(=O)Nc3ccc(OC)c(NS(=O)(=O)c4ccc(F)cc4)c3)coc2c1 : -1.86
